Tested on: HT-29 colon adenocarcinoma cells
Assay Details: Cell viability assay
Type: cell-based
Measurement Parameters: read-out: IC50, cytotoxicity to HT-29 cells; 48 h, MTT
Measured Property: IC50 (µM)
Give the value, in units of µM, as a plain number.

Prompt: Requested read-out IC50, target or system HT-29 colon adenocarcinoma cells, entry CCCCCCC[C@@H](C/C=C/CCC(=O)N(C)C/C(=C/Cl)C/C(=C\C(=O)N1CC(O)CC1=O)OC)OC (stereo partly shown) [Compound 6, malyngamide B]
Completion: 26

----------
Provide the reported pKi of each item.
Assay System: CB2 receptor (Homo sapiens, UniProt P34972)
Sequence (P34972 whole entry): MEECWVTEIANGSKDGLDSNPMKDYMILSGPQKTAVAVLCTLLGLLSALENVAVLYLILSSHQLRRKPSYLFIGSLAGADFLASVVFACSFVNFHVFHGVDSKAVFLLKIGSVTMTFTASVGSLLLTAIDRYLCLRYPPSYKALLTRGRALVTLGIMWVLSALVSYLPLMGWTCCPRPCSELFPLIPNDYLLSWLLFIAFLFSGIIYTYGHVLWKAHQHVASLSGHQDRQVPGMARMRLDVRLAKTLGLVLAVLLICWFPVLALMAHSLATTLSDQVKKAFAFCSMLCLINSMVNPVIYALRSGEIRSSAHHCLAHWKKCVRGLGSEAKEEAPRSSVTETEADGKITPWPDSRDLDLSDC
Assay Details: Cannabinoid CB2 receptor binding assay
Measurement Parameters: read-out: CB2 Ki; human recombinant CB2 in HEK-293 cells, [3H]CP-55940 0.5 nM
Keep it numeric: pKi is minus log10 of the concentration in mol/L.

Prompt: Can you share its pKi? I mean this molecule: CCCCCCC[C@@H](C/C=C/CCC(=O)N(C)C/C(=C/Cl)C/C(=C\C(=O)N1CC(O)CC1=O)OC)OC (some centres unmarked) [Compound 6, malyngamide B]
Completion: 5.59

Prompt: Record: CCCCCCCCCCCCC/C=C/CCC(=O)N[C@H](CO)COC [Compound 5, Serinolamide B]
Completion: 5.28
